biological target: Recombinant human MASP2 enzyme (fragment corresponding to amino acids 297-686, C-terminal His Tag) (human, UniProt O00187 297-686); assay: cell-based or functional assay
Sequence (O00187 other isoform, or with tags, fused parts or gaps limits assumed): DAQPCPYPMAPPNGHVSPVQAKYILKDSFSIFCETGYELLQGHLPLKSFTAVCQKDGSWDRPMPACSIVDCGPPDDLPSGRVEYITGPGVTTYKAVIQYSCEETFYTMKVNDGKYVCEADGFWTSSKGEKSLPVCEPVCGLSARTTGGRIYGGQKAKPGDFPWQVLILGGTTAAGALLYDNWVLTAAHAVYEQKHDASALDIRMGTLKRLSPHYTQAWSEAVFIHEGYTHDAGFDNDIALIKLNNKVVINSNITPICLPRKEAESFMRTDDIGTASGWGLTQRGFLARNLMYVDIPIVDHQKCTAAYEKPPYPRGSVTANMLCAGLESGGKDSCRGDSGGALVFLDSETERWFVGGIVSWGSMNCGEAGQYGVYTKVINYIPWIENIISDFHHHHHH
Numbered stars: 1 amine (or outer) side, 2 acyl side, 3 side chain; on linkers, the order of the positions; unused ones are H or OH. Bridge positions count the residues as written; N and C are the ends. Square brackets hold non-standard residues; d marks the D form. Primed or numbered codes have the meaning given here. Ends that are not written are not given here. * marks the point of attachment. X12 = (S)‑(trifluoromethyl)‑L‑cysteine, O=C([C@H](CSC(F)(F)F)N[*:1])[*:2]; Tranexamic″ = tranexamic acid, NC[C@H]1CC[C@@H](C(=O)*)CC1; Oic = O=C(O)[C@@H]1C[C@@H]2CCCC[C@@H]2N1; Phe(2-Cl) = N[C@@H](Cc1ccccc1Cl)C(=O)O; tBuAla = CC(C)(C)C[C@H](N)C(=O)O; Pen = CC(C)(S)[C@H](N)C(=O)O; NMeC = CN[C@@H](CS)C(=O)O; PEG2 = NCCOCCOCCC(=O)O; Sar = CNCC(=O)O
Overview of recorded human MASP2 IC50 for various binders
Please give a number only; it is taken to be in nM.

{Tranexamic″}-ICSRS[tBuAla]PPI[Pen]IP-{PEG2-NH2} (disulfide 2-10; SMILES CC[C@H](C)[C@@H]1NC(=O)[C@@H]2CCCN2C(=O)[C@@H]2CCCN2C(=O)[C@H](CC(C)(C)C)NC(=O)[C@H](CO)NC(=O)[C@H](CCCNC(=N)N)NC(=O)[C@H](CO)NC(=O)[C@@H](NC(=O)[C@@H](NC(=O)[C@H]2CC[C@@H](CN)CC2)[C@@H](C)CC)CSSC(C)(C)[C@@H](C(=O)N[C@H](C(=O)N2CCC[C@H]2C(=O)NCCOCCOCCC(N)=O)[C@@H](C)CC)NC1=O) [(Tranexamic)-IC+SRS-((tBu)A)-PPI-(Pen)+IP-(PEG1(10 atoms))-NH2] ... 13
AICSRS[Phe(2-Cl)]PPI[NMeC]IPD-NH2 (disulfide 3-11; N-terminus assumed; SMILES CC[C@H](C)[C@H](NC(=O)[C@H](C)N)C(=O)N[C@H]1CSSC[C@@H](C(=O)N[C@H](C(=O)N2CCC[C@H]2C(=O)N[C@@H](CC(=O)O)C(N)=O)[C@@H](C)CC)N(C)C(=O)[C@H]([C@@H](C)CC)NC(=O)[C@@H]2CCCN2C(=O)[C@@H]2CCCN2C(=O)[C@H](Cc2ccccc2Cl)NC(=O)[C@H](CO)NC(=O)[C@H](CCCNC(=N)N)NC(=O)[C@H](CO)NC1=O) [AIC+SRS-((2-Chloro)F)-PPI-((N-Me)C)+IPD-NH2] ... 130
[dA]ICSRS[X12]PPI[Pen]IP-NH2 (disulfide 3-11; N-terminus assumed; SMILES CC[C@H](C)[C@H](NC(=O)[C@@H](C)N)C(=O)N[C@H]1CSSC(C)(C)[C@@H](C(=O)N[C@H](C(=O)N2CCC[C@H]2C(N)=O)[C@@H](C)CC)NC(=O)[C@H]([C@@H](C)CC)NC(=O)[C@@H]2CCCN2C(=O)[C@@H]2CCCN2C(=O)[C@H](CSC(F)(F)F)NC(=O)[C@H](CO)NC(=O)[C@H](CCCNC(=N)N)NC(=O)[C@H](CO)NC1=O) [aIC+SRS-((S)-(trifluoromethyl)-L-cysteine)-PPI-(Pen)+IP-NH2] ... 19

Please examine the following record next.
Lab note: measured human MASP2 IC50 of [Sar]ICSRSLP[Oic]I[Pen]IPQ-OH (disulfide 3-11; N-terminus assumed; SMILES CC[C@H](C)[C@H](NC(=O)CNC)C(=O)N[C@H]1CSSC(C)(C)[C@@H](C(=O)N[C@H](C(=O)N2CCC[C@H]2C(=O)N[C@@H](CCC(N)=O)C(=O)O)[C@@H](C)CC)NC(=O)[C@H]([C@@H](C)CC)NC(=O)[C@@H]2C[C@@H]3CCCC[C@@H]3N2C(=O)[C@@H]2CCCN2C(=O)[C@H](CC(C)C)NC(=O)[C@H](CO)NC(=O)[C@H](CCCNC(=N)N)NC(=O)[C@H](CO)NC1=O) [((N-Me)G)-IC+SRSLP-(Oic)-I-(Pen)+IPQ-OH] was 170
